Cited source for all entries: ChEMBL document CHEMBL4184128

Target: C-C chemokine receptor type 5 (Homo sapiens) (UniProt P51681)
Sequence (P51681 whole entry, looked up): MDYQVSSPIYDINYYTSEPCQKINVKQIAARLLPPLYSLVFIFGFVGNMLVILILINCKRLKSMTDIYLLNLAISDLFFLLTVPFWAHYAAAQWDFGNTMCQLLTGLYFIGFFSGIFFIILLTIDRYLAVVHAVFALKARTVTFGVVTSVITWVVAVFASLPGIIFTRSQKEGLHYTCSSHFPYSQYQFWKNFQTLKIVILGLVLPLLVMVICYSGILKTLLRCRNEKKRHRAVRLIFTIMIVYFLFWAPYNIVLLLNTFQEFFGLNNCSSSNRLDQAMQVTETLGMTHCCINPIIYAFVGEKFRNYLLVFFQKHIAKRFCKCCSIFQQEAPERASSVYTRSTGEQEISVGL
Assay: Inhibition of CCR5 in human TZM-bl cells infected with HIV1 Bal R5 assessed as antiviral activity by measuring reduction in viral infection at 50 uM pre-incubated with cells followed by viral infection measured after 3 days by luciferase reporter gene assay
Type: functional, cell-based
readout: inhibition (%)

Illustrative cases are given below, each with its answer.
| molecule | inhibition (%) |
| --- | --- |
| CC(=O)Oc1ccc(/C=C/S(=O)(=O)CCc2ccc(NC(=O)c3ccc(F)cc3)cc2)cc1OC(C)=O | 26.2 |
| O=C(Nc1ccc(CC[S+]([O-])/C=C/c2ccc(O)c(O)c2)cc1)C12CC3CC(CC(C3)C1)C2 (stereo unspecified) | 64.7 |

a: O=C(Nc1ccc(CC[S+]([O-])/C=C/c2ccc(O)c(O)c2)cc1)c1ccccc1 (stereo unspecified)
b: O=C(Nc1ccc(CCS(=O)(=O)/C=C/c2ccc(O)c(O)c2)cc1)C12CC3CC(CC(C3)C1)C2
c: COc1ccc(C(=O)Nc2ccc(CC[S+]([O-])/C=C/c3ccc(O)c(O)c3)cc2)cc1 (stereo unspecified)
Prompt line: # desc sort on inhibition across 3 molecules To answer, arrange all of the labels according to the requested order.
Response line: a, c, b
(a: 68.4%, c: 34.1%, b: 21.6%)

* * *

Below, each entry is listed alongside its reported CC50 at 48 h.
Assay: Cytotoxicity against human TZM-bl cells assessed as reduction in cell viability after 2 days by CCK-8 assay
Format: cell-based
Quick reminder: number only, in µM, skip the unit.

Observe how each entry below is paired with its result.
| smiles.input | unit.annotation | CC50 at 48 h |
| --- | --- | --- |
| CC(=O)Oc1ccc(/C=C/S(=O)(=O)CCc2ccc(NC(=O)c3ccc([N+](=O)[O-])cc3)cc2)cc1OC(C)=O | µM | 160 |
| CC(=O)Oc1ccc(/C=C/S(=O)(=O)CCc2ccc(NC(=O)c3cc(F)cc(F)c3)cc2)cc1OC(C)=O | µM | 225 |

Please examine the following record next.
Prompt line: Report CC50 at 48 h for CC(=O)Oc1ccc(/C=C/S(=O)(=O)CCc2ccc(NC(=O)c3ccc(F)cc3)cc2)cc1OC(C)=O
Response line: 162

* * *

# CC50 at 48 h per record follows
Assay: Cytotoxicity against human TZM-bl cells assessed as reduction in cell viability after 2 days by CCK-8 assay
Assay type: cell-based
Response body: numeric value in µM, unit text excluded.

The following compounds have reported results that may help.
| compound | CC50 at 48 h [µM] |
| --- | --- |
| O=C(Nc1ccc(CCS(=O)(=O)/C=C/c2ccc(O)c(O)c2)cc1)c1cc(F)cc(F)c1 | 414 |
| COc1ccc(C(=O)Nc2ccc(CCS(=O)(=O)/C=C/c3ccc(OC(C)=O)c(OC(C)=O)c3)cc2)cc1 | 858 |
| CC(=O)Oc1ccc(/C=C/S(=O)(=O)CCc2ccc(NC(=O)C34CC5CC(CC(C5)C3)C4)cc2)cc1OC(C)=O | 182 |
| O=C(Nc1ccc(CC[S+]([O-])/C=C/c2ccc(O)c(O)c2)cc1)c1ccccc1 (configuration not stated) | 157 |
| Cc1ccc(C(=O)Nc2ccc(CCS(=O)(=O)/C=C/c3ccc(O)c(O)c3)cc2)cc1 | 168 |

Prompt line: Find the measured CC50 at 48 h of CC(=O)Oc1ccc(/C=C/S(=O)(=O)CCc2ccc(NC(=O)c3ccc(C)cc3)cc2)cc1OC(C)=O and report it.
Response line: 177

Prompt line: Return CC50 at 48 h for the following compound: CC(=O)Oc1ccc(/C=C/S(=O)(=O)CCc2ccc(NC(=O)C3CCCCC3)cc2)cc1OC(C)=O
Response line: 169

Prompt line: Specify measured CC50 at 48 h for O=C(Nc1ccc(CC[S+]([O-])/C=C/c2ccc(O)c(O)c2)cc1)c1ccc(F)cc1 (configuration not stated) .
Response line: 127

Prompt line: Let me know recorded CC50 at 48 h for O=C(Nc1ccc(CCS(=O)(=O)/C=C/c2ccc(O)c(O)c2)cc1)C12CC3CC(CC(C3)C1)C2 , thanks.
Response line: 786

Prompt line: Let me know recorded CC50 at 48 h for O=C(Nc1ccc(CCS(=O)(=O)/C=C/c2ccc(O)c(O)c2)cc1)C1CCCCC1 , thanks.
Response line: 638

Prompt line: For the compound O=C(Nc1ccc(CCS(=O)(=O)/C=C/c2ccc(O)c(O)c2)cc1)c1ccccc1 , give its reported CC50 at 48 h.
Response line: 238

* * *

Target: Human immunodeficiency virus type 1 integrase (Human immunodeficiency virus 1)
Sequence (Q7ZJM1 whole entry): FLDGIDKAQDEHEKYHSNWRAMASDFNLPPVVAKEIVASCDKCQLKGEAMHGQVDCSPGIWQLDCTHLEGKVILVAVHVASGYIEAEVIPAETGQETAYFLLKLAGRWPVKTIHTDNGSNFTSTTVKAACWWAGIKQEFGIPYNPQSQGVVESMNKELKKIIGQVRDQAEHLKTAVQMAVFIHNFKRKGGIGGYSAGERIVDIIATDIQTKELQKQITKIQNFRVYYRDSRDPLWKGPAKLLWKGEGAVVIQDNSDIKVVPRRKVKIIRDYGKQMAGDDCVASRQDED
Experiment: Binding affinity to HIV1 integrase by surface plasma resonance method
readout: Kd (µM)

| molecule | subject.of.test | Kd / µM |
| --- | --- | --- |
| O=C(Nc1ccc(CCS(=O)(=O)/C=C/c2ccc(O)c(O)c2)cc1)C1CCCCC1 | Human immunodeficiency virus type 1 integrase (Human immunodeficiency virus 1) | 115 |
| O=C(Nc1ccc(CCS(=O)(=O)/C=C/c2ccc(O)c(O)c2)cc1)c1ccccc1 | Human immunodeficiency virus type 1 integrase (Human immunodeficiency virus 1) | 160 |

A: O=C(Nc1ccc(CC[S+]([O-])/C=C/c2ccc(O)c(O)c2)cc1)c1ccccc1 (centres undefined)
B: CC(=O)Oc1ccc(/C=C/S(=O)(=O)CCc2ccc(NC(=O)c3ccccc3)cc2)cc1OC(C)=O
Prompt line: Given A and B , report the one with the higher recorded Kd. Field: selected label. Fill in the label of the entry you choose.
Response line: B

* * *

Target: UniProt P51681
Test: Inhibition of CCR5 in human TZM-bl cells infected with HIV1 Bal R5 assessed as antiviral activity by measuring reduction in viral infection at 50 uM pre-incubated with cells followed by viral infection measured after 3 days by luciferase reporter gene assay
Format: functional, cell-based
readout: inhibition (%)

P: O=C(Nc1ccc(CC[S+]([O-])/C=C/c2ccc(O)c(O)c2)cc1)C1CCCCC1 (stereo not given)
Q: O=C(Nc1ccc(CCS(=O)(=O)/C=C/c2ccc(O)c(O)c2)cc1)c1ccc([N+](=O)[O-])cc1
Prompt line: Lab notebook, comparison: P versus Q , higher inhibition goes to which? Write down the label of the entry you select.
Response line: P
(P: 52.7%, Q: 23.4%)

1: O=C(Nc1ccc(CC[S+]([O-])/C=C/c2ccc(O)c(O)c2)cc1)c1cc(F)cc(F)c1 (stereo not given)
2: O=C(Nc1ccc(CC[S+]([O-])/C=C/c2ccc(O)c(O)c2)cc1)c1ccc(F)cc1 (stereo not given)
Prompt line: Rank 1 against 2 by their inhibition values and give the higher one. Answer with the label corresponding to your selection.
Response line: 2
(2: 64.6%, 1: 41.8%)

* * *

Molecular target: C-C chemokine receptor type 5 (Homo sapiens) (UniProt P51681)
Test: Inhibition of CCR5 in human TZM-bl cells infected with HIV1 Bal R5 assessed as antiviral activity by measuring reduction in viral infection at 50 uM pre-incubated with cells followed by viral infection measured after 3 days by luciferase reporter gene assay
Type: functional, cell-based
readout: inhibition (%)

Illustrative cases are given below, each with its answer.
| smiles.input | endpoint.value |
| --- | --- |
| CC(=O)Oc1ccc(/C=C/S(=O)(=O)CCc2ccc(NC(=O)Cc3cccs3)cc2)cc1OC(C)=O | 23 |
| O=C(Nc1ccc(CCS(=O)(=O)/C=C/c2ccc(O)c(O)c2)cc1)c1cc(F)cc(F)c1 | 33 |

A: CC(=O)Oc1ccc(/C=C/S(=O)(=O)CCc2ccc(NC(=O)c3ccc([N+](=O)[O-])cc3)cc2)cc1OC(C)=O
B: CC(=O)Oc1ccc(/C=C/S(=O)(=O)CCc2ccc(NC(=O)C34CC5CC(CC(C5)C3)C4)cc2)cc1OC(C)=O
Prompt line: Identify the entry with the smaller inhibition: A or B . Which one? Tell me its label.
Response line: B

* * *

Test: Cytotoxicity against human TZM-bl cells assessed as reduction in cell viability after 2 days by CCK-8 assay
Assay type: cell-based
readout: CC50 at 48 h (µM)
Field: numeric (µM). Do not append units.

| smiles.input | CC50 at 48 h (µM) |
| --- | --- |
| CC(=O)Oc1ccc(/C=C/S(=O)(=O)CCc2ccc(NC(=O)Cc3cccs3)cc2)cc1OC(C)=O | 161 |
| CC(=O)Oc1ccc(/C=C/S(=O)(=O)CCc2ccc(NC(=O)c3ccccc3)cc2)cc1OC(C)=O | 108 |
| O=C(Cc1cccs1)Nc1ccc(CCS(=O)(=O)/C=C/c2ccc(O)c(O)c2)cc1 | 569 |

Continue with the molecule presented below.
Prompt line: Return reported CC50 at 48 h. Input molecule: O=C(Nc1ccc(CCS(=O)(=O)/C=C/c2ccc(O)c(O)c2)cc1)c1ccc([N+](=O)[O-])cc1
Response line: 483
